Property: APOE RNA (% UTC) 82 nM; scope: individual substances
# Tested on: human APOE RNA
# test.protocol: Dose-dependent inhibition of human APOE RNA in HepG2 cells, electroporation, 50,000 cells per well, RT-PCR normalized to GAPDH (Example 4, Tables 8-10)
# Assay type: cell-based
# condition: HepG2 cells, electroporation, 24-hour treatment, 82 nM, Table 8
Strand notation (5' to 3'): a small letter for the sugar, then the base; units joined by * are phosphorothioate-linked, units joined directly phosphodiester-linked; [ ] holds rarer units or linkages, { } end groups; capitals alone tell only the bases. [ms] = mesyl phosphoramidate linkage; e = 2'-O-(2-methoxyethyl) (MOE); k = constrained ethyl (cEt); [5mC] = 5-methylcytosine; d = 2'-deoxy (DNA)
Report only the number, with the unit % UTC understood.

substance	APOE RNA (% UTC) 82 nM
1785601: modified oligonucleotide complementary to human APOE RNA (k[5mC]*kT*kT*dG[ms]dG[ms]dT[ms]dG*dA[ms]dA[ms]dT*d[5mC]*dT*dT*dT*dA[ms]dT*kT*kA*dA[ms]kA; antisense) [compound 1785601]	75
1778125: modified oligonucleotide complementary to human APOE RNA (eA*e[5mC]eTeTeGeG*dT*dG[ms]dA[ms]dA*dT*d[5mC]*dT*dT*dT*dA[ms]kTkT*eA*eA; antisense) [compound 1778125]	74
1778127: modified oligonucleotide complementary to human APOE RNA (eA*e[5mC]eTeTkGkG*dT*dG[ms]dA[ms]dA*dT*d[5mC]*dT*dT*dT*dA[ms]kTeT[ms]eA[ms]eA; antisense) [compound 1778127]	82
1785598: modified oligonucleotide complementary to human APOE RNA (k[5mC]*kT*kT*dG[ms]dG[ms]dT[ms]dG[ms]dA[ms]dA[ms]dT*d[5mC]*dT*dT*dT*dA*dT[ms]kT*kA*dA[ms]kA; antisense) [compound 1785598]	95
Aes^mCeoTeoTesGesGksTdsGdzAdzAdzTds^mCdsTdsTdsTdsAdzTksTksAesAe (eA*e[5mC]eTeT*eG*kG*dT*dG[ms]dA[ms]dA[ms]dT*d[5mC]*dT*dT*dT*dA[ms]kT*kT*eA*eA) [Compound No. 1757576]	67

Alright, here's another substance for you.
Asked: For the substance 1778111: modified oligonucleotide complementary to human APOE RNA (eA*e[5mC]eTeTeG*kG*dT*dG[ms]dA[ms]dA*dT*d[5mC]*dT*dT*dT*dA[ms]eTeT*eA*eA; antisense) [compound 1778111] , what APOE RNA (% UTC) 82 nM is on record?
Given back: 61
